The reported measurements were obtained from the supplement of paper PMC3334620.

Here, each record is paired with measured PBM E-score data.
# target: Sut1 (UniProt P53032)
# Sequence: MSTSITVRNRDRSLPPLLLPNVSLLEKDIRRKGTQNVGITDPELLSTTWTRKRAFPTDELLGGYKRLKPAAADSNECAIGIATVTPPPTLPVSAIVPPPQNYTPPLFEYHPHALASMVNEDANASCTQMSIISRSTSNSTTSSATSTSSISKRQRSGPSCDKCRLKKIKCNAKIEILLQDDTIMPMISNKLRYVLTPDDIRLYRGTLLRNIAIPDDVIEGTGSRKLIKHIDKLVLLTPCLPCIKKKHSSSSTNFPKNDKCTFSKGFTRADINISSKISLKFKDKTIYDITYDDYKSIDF
# protocol details: PBM E-score (8-mer binding enrichment) (E-score (-0.5 to 0.5)); higher = stronger / more preferred TF binding
# condition label: protein concentration: 200 nM; construct: GST-full length
Whole data set: some 33,000 sequences, median “E-score (-0.5 to 0.5)” near -0.017, cut for the highest 2% near 0.3. What follows is part of a selection rich in the highest values, with near analogues and random picks from the rest.

[
  {
    "query sequence": "GGACGTAA",
    "PBM E-score": -0.136
  },
  {
    "query sequence": "ATGCAGCA",
    "PBM E-score": -0.134
  },
  {
    "query sequence": "AGTTCGGG",
    "PBM E-score": 0.0543
  },
  {
    "query sequence": "CTAGTTGC",
    "PBM E-score": -0.0129
  },
  {
    "query sequence": "ACCCGGAT",
    "PBM E-score": -0.107
  },
  {
    "query sequence": "ACGGTCGA",
    "PBM E-score": -0.135
  },
  {
    "query sequence": "ACTCGGCT",
    "PBM E-score": -0.079
  },
  {
    "query sequence": "ACCCGGGC",
    "PBM E-score": -0.0147
  },
  {
    "query sequence": "CGTGAAGA",
    "PBM E-score": -0.026
  },
  {
    "query sequence": "CCCCGGAC",
    "PBM E-score": 0.357
  },
  {
    "query sequence": "ACAGTCCG",
    "PBM E-score": 0.312
  },
  {
    "query sequence": "TCACCCCA",
    "PBM E-score": -0.0213
  },
  {
    "query sequence": "ACCCGGAA",
    "PBM E-score": 0.197
  },
  {
    "query sequence": "GAATTTAC",
    "PBM E-score": 0.0497
  },
  {
    "query sequence": "ACGTGGTG",
    "PBM E-score": -0.133
  },
  {
    "query sequence": "AAATTTAA",
    "PBM E-score": 0.318
  },
  {
    "query sequence": "ACCCGGTC",
    "PBM E-score": -0.124
  },
  {
    "query sequence": "CGTTCGGA",
    "PBM E-score": 0.385
  },
  {
    "query sequence": "CGAGTCCC",
    "PBM E-score": 0.014
  },
  {
    "query sequence": "CATCTGCG",
    "PBM E-score": -0.0835
  },
  {
    "query sequence": "GTACCGGA",
    "PBM E-score": 0.342
  },
  {
    "query sequence": "AGAGTCCT",
    "PBM E-score": -0.114
  },
  {
    "query sequence": "ACAATTTC",
    "PBM E-score": 0.0702
  },
  {
    "query sequence": "CCAACCCG",
    "PBM E-score": -0.172
  },
  {
    "query sequence": "CGCGACAG",
    "PBM E-score": -0.283
  },
  {
    "query sequence": "ACCCGGAG",
    "PBM E-score": 0.416
  },
  {
    "query sequence": "GGTTCGGA",
    "PBM E-score": 0.423
  },
  {
    "query sequence": "TGATTTAA",
    "PBM E-score": 0.3
  },
  {
    "query sequence": "CGAGTCCA",
    "PBM E-score": -0.139
  },
  {
    "query sequence": "GCCTTAAA",
    "PBM E-score": 0.0657
  },
  {
    "query sequence": "AGGGGATC",
    "PBM E-score": -0.134
  },
  {
    "query sequence": "ATACCGGA",
    "PBM E-score": 0.326
  },
  {
    "query sequence": "AGAGTCCG",
    "PBM E-score": 0.449
  },
  {
    "query sequence": "CCACTTTA",
    "PBM E-score": 0.0316
  },
  {
    "query sequence": "ATACCGGG",
    "PBM E-score": 0.0371
  },
  {
    "query sequence": "AGAACCTC",
    "PBM E-score": -0.0985
  },
  {
    "query sequence": "GGTTCGAA",
    "PBM E-score": 0.14
  },
  {
    "query sequence": "AGAGTCCC",
    "PBM E-score": -0.0834
  },
  {
    "query sequence": "CCCTCAAA",
    "PBM E-score": -0.0431
  },
  {
    "query sequence": "CGTTCGTA",
    "PBM E-score": 0.15
  },
  {
    "query sequence": "TGGCGACA",
    "PBM E-score": -0.207
  },
  {
    "query sequence": "ACAGCGTG",
    "PBM E-score": -0.171
  },
  {
    "query sequence": "ATGCATAC",
    "PBM E-score": -0.0233
  },
  {
    "query sequence": "AGTTCGGC",
    "PBM E-score": 0.126
  },
  {
    "query sequence": "GTACCGCA",
    "PBM E-score": 0.102
  },
  {
    "query sequence": "CAATTTAA",
    "PBM E-score": 0.317
  }
]

###

# target: Sut1 (UniProt P53032)
# Sequence: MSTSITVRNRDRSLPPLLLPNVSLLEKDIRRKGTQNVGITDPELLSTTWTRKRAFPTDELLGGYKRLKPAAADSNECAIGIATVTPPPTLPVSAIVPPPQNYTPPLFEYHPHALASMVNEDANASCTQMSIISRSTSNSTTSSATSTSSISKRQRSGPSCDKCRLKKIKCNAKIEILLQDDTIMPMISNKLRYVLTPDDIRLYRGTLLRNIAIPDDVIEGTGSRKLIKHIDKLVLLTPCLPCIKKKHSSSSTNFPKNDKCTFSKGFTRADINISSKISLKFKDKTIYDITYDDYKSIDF
# protocol details: PBM E-score (8-mer binding enrichment) (E-score (-0.5 to 0.5)); higher = stronger / more preferred TF binding
# condition label: protein concentration: 200 nM; construct: GST-full length
Over roughly 33,000 sequences, “E-score (-0.5 to 0.5)” has its median near -0.017; the highest 2% begin near 0.3. This is one part of a sample in which the highest values are shown more often than they occur.

[
  {
    "query sequence": "ACGGAGCA",
    "target": "Sut1 (UniProt P53032)",
    "PBM E-score": 0.207
  },
  {
    "query sequence": "GCGGAGCA",
    "target": "Sut1 (UniProt P53032)",
    "PBM E-score": 0.152
  },
  {
    "query sequence": "CAACAGTC",
    "target": "Sut1 (UniProt P53032)",
    "PBM E-score": 0.0186
  }
]

###

# target: Sut1 (UniProt P53032)
# Sequence: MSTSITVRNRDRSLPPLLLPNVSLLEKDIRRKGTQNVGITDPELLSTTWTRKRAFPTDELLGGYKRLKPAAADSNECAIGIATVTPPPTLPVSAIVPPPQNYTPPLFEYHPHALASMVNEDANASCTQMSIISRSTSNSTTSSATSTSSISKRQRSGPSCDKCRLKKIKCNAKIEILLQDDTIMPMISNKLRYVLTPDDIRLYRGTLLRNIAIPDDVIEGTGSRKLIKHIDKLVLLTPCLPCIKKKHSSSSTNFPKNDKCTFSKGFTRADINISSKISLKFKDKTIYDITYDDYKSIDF
# protocol details: PBM E-score (8-mer binding enrichment) (E-score (-0.5 to 0.5)); higher = stronger / more preferred TF binding
# condition label: protein concentration: 200 nM; construct: GST-full length
The full ranking holds about 33,000 sequences; the median of “E-score (-0.5 to 0.5)” is about -0.017, and the highest 2% start at about 0.3. This excerpt belongs to a sample that is enriched for the highest values.

[
  {
    "query sequence": "AGTAGAGG",
    "PBM E-score": -0.308
  },
  {
    "query sequence": "GACTACGA",
    "PBM E-score": 0.0667
  },
  {
    "query sequence": "AATCCGTG",
    "PBM E-score": -0.153
  },
  {
    "query sequence": "CCCTGGTA",
    "PBM E-score": -0.336
  },
  {
    "query sequence": "TACCACCA",
    "PBM E-score": 0.0245
  },
  {
    "query sequence": "AAGCAGAG",
    "PBM E-score": -0.037
  },
  {
    "query sequence": "CCTCCGTC",
    "PBM E-score": -0.0539
  },
  {
    "query sequence": "ATTCTATA",
    "PBM E-score": 0.16
  },
  {
    "query sequence": "CCTCCGTA",
    "PBM E-score": 0.0232
  },
  {
    "query sequence": "ACTCCGTC",
    "PBM E-score": 0.48
  },
  {
    "query sequence": "GCTCCGTA",
    "PBM E-score": 0.291
  },
  {
    "query sequence": "TACAGGCA",
    "PBM E-score": 0.085
  },
  {
    "query sequence": "AATTGCGT",
    "PBM E-score": 0.134
  },
  {
    "query sequence": "ACTCCGTG",
    "PBM E-score": 0.473
  },
  {
    "query sequence": "ATTCCGTG",
    "PBM E-score": 0.273
  },
  {
    "query sequence": "ACTTGAAC",
    "PBM E-score": 0.157
  },
  {
    "query sequence": "CTGCTGTA",
    "PBM E-score": -0.0764
  },
  {
    "query sequence": "GGATCAGA",
    "PBM E-score": -0.0639
  },
  {
    "query sequence": "ACTCCGTA",
    "PBM E-score": 0.478
  },
  {
    "query sequence": "CACTAACG",
    "PBM E-score": -0.17
  },
  {
    "query sequence": "AGTGTGGA",
    "PBM E-score": 0.0491
  },
  {
    "query sequence": "ACGTATTC",
    "PBM E-score": -0.0472
  }
]
